Recorded values, source patent US9556165B2.

Test system: H. influenzae ATCC 49247
method-description: MIC determination, broth microdilution (CLSI)
Assay type: cell-based
experimental-conditions: Haemophilus influenzae, ATCC49247, strain 12; broth microdilution; read-out: MIC strain 12 (H. influenzae ATCC 49247)
Please go through the items and note down their MIC.
Numbers only, in µg/mL.

Take each entry in turn and give its MIC.
1. C[C@H]1[C@H](NC(=O)/C(=N\OCCOc2cc(C(=N)N)nn2C)c2csc(N)n2)C(=O)N1S(=O)(=O)O
2. C[C@H]1[C@H](NC(=O)/C(=N\OCCOc2ccc(C(=N)NNC=O)cc2)c2csc(N)n2)C(=O)N1S(=O)(=O)O

1. 1
2. 0.125

Take each entry in turn and give its MIC.
1. CC1(C)[C@H](NC(=O)/C(=N\O[C@H](COc2ccc(C(=N)NC(CN)CN)cc2)C(=O)O)c2csc(N)n2)C(=O)N1OS(=O)(=O)O
2. CC1(C)[C@H](NC(=O)/C(=N\OCC(Oc2ccc(C(=N)N)cc2)C(=O)O)c2csc(N)n2)C(=O)N1OS(=O)(=O)O (single isomer, unassigned) [Example 87A]

1. 0.25
2. 0.25

====

Tested on: B. fragilis 6688
method-description: MIC determination, broth microdilution (CLSI)
Format: cell-based
experimental-conditions: Bacteroides fragilis, 6688, strain 15; broth microdilution; read-out: MIC strain 15 (B. fragilis 6688)
Please go through the items and note down their MIC.
One number for each entry, in µg/mL.

CC1(C)[C@H](NC(=O)/C(=N\OC(COc2ccc(C(=N)NCCN)cc2)C(=O)O)c2csc(N)n2)C(=O)N1OS(=O)(=O)O (mixture of isomers) [Example 44A]
8
C[C@H]1[C@H](NC(=O)/C(=N\OCCOc2ccc(C(=N)NCCOC=O)cc2)c2csc(N)n2)C(=O)N1S(=O)(=O)O
16
CC1(C)[C@H](NC(=O)/C(=N\OC(CCO)COc2ccc(C(=N)N)cc2)c2csc(N)n2)C(=O)N1OS(=O)(=O)O (single isomer, unassigned) [Example 81A]
16
C[C@H]1[C@H](NC(=O)/C(=N\OCCOc2cc(C(=N)N)n(C)n2)c2csc(N)n2)C(=O)N1S(=O)(=O)O
16
C[C@H]1[C@H](NC(=O)/C(=N\OCCOc2ccc(CC(=N)N)cc2)c2csc(N)n2)C(=O)N1S(=O)(=O)O
16
CN(C)CCNC(=N)c1ccc(OCCO/N=C(\C(=O)N[C@@H]2C(=O)N(OS(=O)(=O)O)C2(C)C)c2csc(N)n2)cc1
4
C[C@H]1[C@H](NC(=O)/C(=N\OCCOc2ccc(C(=N)N)cc2CO)c2csc(N)n2)C(=O)N1S(=O)(=O)O
16
CC1(C)[C@H](NC(=O)/C(=N\O[C@@H](COc2ccc(C(=N)N[C@@H]3CCCNC3)cc2)C(=O)O)c2csc(N)n2)C(=O)N1OS(=O)(=O)O
8

Take each entry in turn and give its MIC.
1. CNC(=N)c1ccc(OCCO/N=C(\C(=O)N[C@@H]2C(=O)N(S(=O)(=O)O)[C@H]2C)c2csc(N)n2)cc1
2. CC1(C)[C@H](NC(=O)/C(=N\OCCOc2ccc(C(=N)NCc3ccccn3)cc2)c2csc(N)n2)C(=O)N1OS(=O)(=O)O

1. 8
2. 4

Take each entry in turn and give its MIC.
1. C[C@H]1[C@H](NC(=O)/C(=N\OCCOc2ccc(C(=N)NNC=O)cc2)c2csc(N)n2)C(=O)N1S(=O)(=O)O
2. C[C@H]1[C@H](NC(=O)/C(=N\OCCOCc2cc(C(=N)N)cs2)c2csc(N)n2)C(=O)N1S(=O)(=O)O

1: 16; 2: 32

Please give the measured MIC for this molecule: CC1(C)[C@H](NC(=O)/C(=N\OCCOc2ccc(C(=N)NCC(=O)O)cc2)c2csc(N)n2)C(=O)N1OS(=O)(=O)O 8

====

Please go through the items and note down their MIC.
System: S. pneumoniae 113
method-description: MIC determination, broth microdilution (CLSI)
Format: cell-based
experimental-conditions: Streptococcus pneumoniae, 113, strain 13; broth microdilution; read-out: MIC strain 13 (S. pneumoniae 113)
Numbers only, in µg/mL.

// below: answered compounds
CC1(C)[C@H](NC(=O)/C(=N\OCC(Oc2ccc(C(=N)N)cc2)C(=O)O)c2csc(N)n2)C(=O)N1OS(=O)(=O)O (single isomer, unassigned) [Example 87A]
0.5
CC1(C)[C@H](NC(=O)/C(=N\O[C@@H](COc2ccc(C(=N)N[C@@H]3CCCNC3)cc2)C(=O)O)c2csc(N)n2)C(=O)N1OS(=O)(=O)O
0.5
CC1(C)[C@H](NC(=O)/C(=N\O[C@@H](COc2ccc(C(=N)NC3CCCNC3)cc2)C(=O)O)c2csc(N)n2)C(=O)N1OS(=O)(=O)O (some centres unmarked)
0.5
C[C@H]1[C@H](NC(=O)/C(=N\OCCOc2cc(C(=N)N)nn2C)c2csc(N)n2)C(=O)N1S(=O)(=O)O
0.5
CC1(C)[C@H](NC(=O)/C(=N\O[C@@H](COc2ccc(C(=N)NC(CN)CN)cc2)C(=O)O)c2csc(N)n2)C(=O)N1OS(=O)(=O)O
0.5

Take each entry in turn and give its MIC.
1. C[C@H]1[C@H](NC(=O)/C(=N\OCCOc2ccc(C(=N)N)cc2)c2csc(N)n2)C(=O)N1OS(=O)(=O)O
2. CC1(C)[C@H](NC(=O)/C(=N\O[C@H](COc2ccc(C(=N)NC(CN)CN)cc2)C(=O)O)c2csc(N)n2)C(=O)N1OS(=O)(=O)O
3. C[C@H]1[C@H](NC(=O)/C(=N\OCCCOc2ccc(NC(=N)N)cc2)c2csc(N)n2)C(=O)N1S(=O)(=O)O
4. CC1(C)[C@H](NC(=O)/C(=N\O[C@@H](COc2ccc(C(=N)N[C@@H]3CCNC3)cc2)C(=O)O)c2csc(N)n2)C(=O)N1OS(=O)(=O)O
5. C[C@H]1[C@H](NC(=O)/C(=N\OCCOc2ccc(CC(=N)N)cc2)c2csc(N)n2)C(=O)N1S(=O)(=O)O

1: 0.125; 2: 4; 3: 1; 4: 0.5; 5: 1

====

Tested on: S. pneumoniae 113
method-description: MIC determination, broth microdilution (CLSI)
Assay type: cell-based
experimental-conditions: Streptococcus pneumoniae, 113, strain 13; broth microdilution; read-out: MIC strain 13 (S. pneumoniae 113)
readout-kind: MIC

CC1(C)[C@H](NC(=O)/C(=N\OCCOc2ccc(C(=N)NCCNC(=N)N)cc2)c2csc(N)n2)C(=O)N1OS(=O)(=O)O
≤ 0.063 µg/mL
CC1(C)[C@H](NC(=O)/C(=N\OCCOc2ccc(C(=N)NCCCN)cc2)c2csc(N)n2)C(=O)N1OS(=O)(=O)O
≤ 0.063 µg/mL
CNC(=N)c1ccc(OCCO/N=C(\C(=O)N[C@@H]2C(=O)N(S(=O)(=O)O)[C@H]2C)c2csc(N)n2)cc1
0.5 µg/mL
N=C(N)c1ccc(OCCO/N=C(\C(=O)N[C@@H]2C(=O)N(S(=O)(=O)O)[C@@H]2C(N)=O)c2csc(N)n2)cc1
1 µg/mL
CC(C)(N)CNC(=N)c1ccc(OC[C@H](O/N=C(\C(=O)N[C@@H]2C(=O)N(OS(=O)(=O)O)C2(C)C)c2csc(N)n2)C(=O)O)cc1
0.5 µg/mL

Please give the measured MIC for this molecule: C[C@@H]1[C@H](NC(=O)/C(=N\OCCCOc2ccc(C(=N)N)cc2)c2csc(N)n2)C(=O)N1S(=O)(=O)O 1 µg/mL

====

Test system: P. aeruginosa 2297 (AmpC wt)
method-description: MIC determination, broth microdilution (CLSI)
Assay type: cell-based
experimental-conditions: Pseudomonas aeruginosa, strain 7
Please go through the items and note down their MIC.
Answers are plain numbers, in µg/mL.

C[C@H]1[C@H](NC(=O)/C(=N\OCCCOc2ccc(NC(=N)N)cc2)c2csc(N)n2)C(=O)N1S(=O)(=O)O
16
CC1(C)[C@H](NC(=O)/C(=N\OCCSc2ccc(C(=N)N)cc2)c2csc(N)n2)C(=O)N1OS(=O)(=O)O
16
CC1(C)[C@H](NC(=O)/C(=N\OCCOc2ccc(C(=N)N)nc2)c2csc(N)n2)C(=O)N1OS(=O)(=O)O
16

Take each entry in turn and give its MIC.
1. C[C@H]1[C@H](NC(=O)/C(=N\OCCOc2ccc(C(=N)N)cc2Br)c2csc(N)n2)C(=O)N1S(=O)(=O)O
2. C[C@@H]1[C@H](NC(=O)/C(=N\OCCOc2ccc(C(=N)N)cc2)c2csc(N)n2)C(=O)N1OS(=O)(=O)O
3. CC1(C)[C@H](NC(=O)/C(=N\O[C@@H](COc2ccc(C(=N)NC3CCNCC3)cc2)C(=O)O)c2csc(N)n2)C(=O)N1OS(=O)(=O)O
4. CC1(C)[C@H](NC(=O)/C(=N\OC(COc2ccc(C(=N)NC3CCCNC3)cc2)C(=O)O)c2csc(N)n2)C(=O)N1OS(=O)(=O)O (stereo in doubt)
5. CC1(C)[C@H](NC(=O)/C(=N\O[C@@H](COc2ccc(C(=N)NCC3CCCN3)cc2)C(=O)O)c2csc(N)n2)C(=O)N1OS(=O)(=O)O (stereo partly shown)
6. C[C@H]1[C@H](NC(=O)/C(=N\OCCOc2ccc(C(=N)N)cc2)c2csc(N)n2)C(=O)N1S(=O)(=O)O
7. CC1(C)[C@H](NC(=O)/C(=N\OCCOc2ccc(C3=NCC(N)CN3)cc2)c2csc(N)n2)C(=O)N1OS(=O)(=O)O (stereo partly shown)

[16, 8, 1, 1, 2, 2, 8]

Take each entry in turn and give its MIC.
1. C[C@H]1[C@H](NC(=O)/C(=N\OCCOc2ccc(NC(=N)N)cc2)c2csc(N)n2)C(=O)N1S(=O)(=O)O
2. N=C(N)c1ccc(OCCO/N=C(\C(=O)NC2C(=O)N(OS(=O)(=O)O)C23CCCC3)c2csc(N)n2)cc1 (stereo not shown)
3. CC1(C)[C@H](NC(=O)/C(=N\O[C@@H](COc2ccc(C(=N)NC(CN)CN)cc2)C(=O)O)c2csc(N)n2)C(=O)N1OS(=O)(=O)O

16
32
2
